Entries and their IC50 values follow.
# target_of_assay: human PLK4 (Homo sapiens, UniProt O00444)
# Construct: amino terminal GST fusion of residues 1-391 of human PLK4; made in house; host or cells: E. coli
# Sequence (O00444 1-391): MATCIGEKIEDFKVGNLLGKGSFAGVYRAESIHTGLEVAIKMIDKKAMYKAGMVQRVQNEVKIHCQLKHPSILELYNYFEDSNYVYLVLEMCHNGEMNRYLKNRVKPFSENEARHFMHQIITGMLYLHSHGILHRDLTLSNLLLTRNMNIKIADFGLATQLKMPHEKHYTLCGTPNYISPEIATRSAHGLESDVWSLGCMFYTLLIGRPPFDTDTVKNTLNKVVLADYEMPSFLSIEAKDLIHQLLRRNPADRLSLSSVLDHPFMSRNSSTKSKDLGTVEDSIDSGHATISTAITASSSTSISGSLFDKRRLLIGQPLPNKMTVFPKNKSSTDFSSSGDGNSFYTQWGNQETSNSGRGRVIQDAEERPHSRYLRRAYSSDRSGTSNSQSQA
# experiment_summary: PLK4 Inhibition Assay (indirect ELISA)
# Assay type: biochemical
# settings: 15 μM ATP, 4 nM GST-PLK4; read-out: PLK4 IC50 Ranges

Here's what some known entries look like.
molecule | quantity_name | value_measured
O=C1Nc2cc(Br)ccc2C1=Nc1ccc2cn[nH]c2c1 [Example A76] | IC50 | 5 to 50 µM
O=C1Nc2c(Cl)cccc2/C1=C\c1ccc2cn[nH]c2c1 [Example A43] | IC50 | < 5 µM
O=C1Nc2ccccc2/C1=C\c1cc(-c2ccncc2)c2cn[nH]c2c1 [Example A54a] | IC50 | < 5 µM
O=C1Nc2ccccc2/C1=C\c1cc(Br)c2cn[nH]c2c1 [Example A53a] | IC50 | < 5 µM
COc1ccc2c(c1)/C(=C\c1ccc3c(-c4cnc(N5CCN(C)CC5)nc4)n[nH]c3c1)C(=O)N2 [Example A151] | IC50 | < 5 µM

Let us move to another entry and its IC50.
## Input Please give measured IC50 of the following entry: O=C1Nc2ncc(Br)cc2C1=Cc1ccc2c(/C=C/c3cccnc3)n[nH]c2c1 (mixture of isomers) [Example A140]
## Output < 5 µM
